# assay.procedure: cells
# test.context: Homo sapiens, MFD-1, 120 h
# Description: Antiproliferative activity against human MFD-1 cells assessed as reduction in cell viability measured after 5 days by PrestoBlue reagent based fluorescence analysis
recorded.endpoint: EC50 (nM)
Give bare numbers, in nM.

Reported EC50 for CNc1ncc2c(/C=C/C(=O)N3CCC4(CC3)OCCO4)nn(Cc3cccc(C(F)(F)F)c3)c2n1 : what is it?
920

---

# assay.procedure: cells
# test.context: Homo sapiens, FLO-1, 120 h
# Description: Antiproliferative activity against human FLO-1 cells assessed as reduction in cell viability measured after 5 days by PrestoBlue reagent based fluorescence analysis
Consider the following compounds; for each one, report its pEC50.
Give bare numbers, as −log10 of the molar value.

Consider the reported pEC50 for these compounds:
{"chemical.smiles": "CNc1ncc2c(/C=C/C(=O)N3CCC4(CC3)OCCO4)nn(Cc3cccc(C)c3)c2n1", "recorded.endpoint": "pEC50", "experimental.value": 5.91}
{"chemical.smiles": "CNc1ncc2c(/C=C/C(=O)N3CCC4(CC3)OCCO4)nn(Cc3cccc(C(F)(F)F)c3)c2n1", "recorded.endpoint": "pEC50", "experimental.value": 6.15}

Shift focus to the following entry.
Reported pEC50 for CNc1ncc2c(/C=C/C(=O)N3CCC(OC)CC3)nn(Cc3cccc(C)c3)c2n1 : what is it?
5.60

Data credit: ChEMBL document CHEMBL6134771
